Let's look at some compounds and their measured T/C.
Tested on: P388 leukemia ip, CD2F1 mice, survival T/C
TEST_DETAILS: NCI In Vivo Anticancer Drug Screen. Data for tumor model P388 Leukemia (intraperitoneal) in CD2F1 (CDF1) mice
ASSAY_CONTEXT: endpoint: median survival time; dose: 200.0 mg/kg/injection; schedule: Q01DX009 (ip); vehicle: saline with Tween-80; higher = longer survival
Description: The antitumor activity of compounds was measured in mice bearing transplantable tumors. Survival or tumor size were measured and the results are expressed as the measurement made in the treated group (T) divided by the measurement made in the vehicle treated control group (C). The tumor model used in this assay is P388 Leukemia (intraperitoneal) in CD2F1 (CDF1) mice
Inconclusive results and toxic doses are left out.

Recorded results for 3 compounds are shown here.
query: Tell us which T/C value is on record for CN(C)S(=O)(=O)Nc1ccccn1
result: 86 % of control

query: Consider the compound O=P(Oc1cccc2ccccc12)(N1CC1)N1CC1 . State its measured T/C.
result: 95 % of control

query: Answer with the recorded T/C of c1ccc2sc(-c3ccncc3)nc2c1 only.
result: 108 % of control

New cases:
query: Tell me measured T/C for Cn1c2cc3ccccc3cc2nc2cc3c(cc21)c(Cl)c(=O)c1ccccc13 please.
result: 100 % of control

query: Write down T/C measured for item CCCCCCC(=O)/C=C/c1cccc([N+](=O)[O-])c1
result: 94 % of control

query: Specify reported T/C for the compound shown: CCOC(=O)c1cc(-c2ccc(Cl)cc2)nc2c(Cl)cc(Cl)cc12
result: 94 % of control

query: Input NC(=S)N1CCCC1 , output reported T/C.
result: 89 % of control

query: Name the recorded T/C of the compound listed here: Cc1cc2c(c3ncccc13)OCN(Cc1ccc(Cl)c(Cl)c1)C2
result: 100 % of control

query: Find the measured T/C of CCOC(=O)Cc1ccnc(C)c1 and report it.
result: 100 % of control
